Where do these numbers come from? They come from PubChem BioAssay (NCI).

- System: NCI-H226 lung
- Test protocol: NCI tumour cell line growth inhibition, 48 h; in the data active means GI50 below about 0.43 µM; inactive means the rest
Field 'call' accepts yes = active, no = inactive

So what was the verdict on NC(N)=N/N=C(/c1ccccc1)c1ccc(Cl)cc1 in this test?
no

One more molecule: CC(C)=CCc1ccc(O)c(=O)cc1C(C)C
no

One more molecule: COc1cc(C(=O)N2CCN(c3ccccc3OC)CC2)c(N)cc1OCc1ccccc1
no

One more molecule: CC1(C)N=C(N)N=C(N)N1c1ccc(OCC(=O)N2CCOCC2)c(Cl)c1
no

One more molecule: CCOCC(=O)N[C@H]1CCc2cc(OC(=O)COCC)c(OC)c(OC)c2-c2ccc(SC)c(=O)cc21
yes

One more molecule: O=C1/C(=C/c2ccc([N+](=O)[O-])o2)Oc2ccccc21
no

One more molecule: CO/N=C(\COc1ccc2c(c1)oc(=O)c1cc(OC)ccc12)c1ccc(F)cc1
no

One more molecule: COC(=O)c1cc2c3ccccc3n3c(=O)c4cc5cc(OC)c(N(S(=O)(=O)c6ccc(C)cc6)S(=O)(=O)c6ccc(C)cc6)cc5nc4c(n1)c23
no

One more molecule: O=C(Nc1cccnc1)c1cccc([N+](=O)[O-])c1
no

One more molecule: COc1cc2c3c(n(CCCNC(=O)OCC4c5ccccc5-c5ccccc54)c(=O)c2cc1OC)-c1cc2c(cc1C3=O)OCO2
no

One more molecule: O=C1/C(=C/c2ccc(Cl)cc2)CN(Cc2cn(CCNc3ccnc4cc(Cl)ccc34)nn2)C/C1=C\c1ccc(Cl)cc1
no

One more molecule: O=C(N1CCC(CN=c2cc3n(-c4ccc(Cl)cc4)c4ccccc4nc-3cc2Nc2ccc(Cl)cc2)CC1)N1CC1
no

* * *

Answer each item with its documented TGI.
- Tested on: OVCAR-5 ovarian
- Test protocol: NCI tumour cell line growth inhibition, 48 h

For CCN(CC)CCC(=O)N1CCc2c([nH]c3ccccc23)C1c1cccnc1 (stereo not given) , what is its reported TGI?
> 100 µM

One more compound: O=c1c2ccccc2c2c1c1c3ccccc3c(=O)c1c1c3ccccc3c(=O)c21
> 100 µM

One more compound: Cc1cc(C)nc(NS(=O)(=O)c2ccc(NNC(=O)c3cccc4c(NNc5ccc(S(=O)(=O)Nc6nc(C)cc(C)n6)cc5)c5ccccc5nc34)cc2)n1
40.3 µM

One more compound: O=C1N(CN2CCOCC2)CN(CN2CCOCC2)C(=O)N1Cc1ccccc1
> 100 µM

One more compound: C[N+](C)(C)Cc1c(CC#N)[nH]c2ccccc12
> 100 µM

* * *

- Tested on: SF-539 CNS
- Test protocol: NCI tumour cell line growth inhibition, 48 h
Endpoint name: TGI (µM)
Express the result in µM but write the number alone.

For COc1cc2c3c(n(CCCNC(=O)OCC4c5ccccc5-c5ccccc54)c(=O)c2cc1OC)-c1cc2c(cc1C3=O)OCO2 , what is its reported TGI?
31.2

One more compound: O[C@@H]1CCCN1Cc1cc2cc3c(cc2c2cc(OCc4ccccc4)ccc12)OCO3
10.4

One more compound: COc1cc(/C=C/C(=O)C(C(=O)/C=C/c2ccc(OC(=O)CCNc3nnc(C)s3)c(OC)c2)C(=O)CCNc2nnc(C)s2)ccc1OC(=O)CCNc1nnc(C)s1
6.03

One more compound: CCSc1nc(N2CCCCC2)c2cn[nH]c2n1
48.3

One more compound: CCOC(=O)/C=C(\C(=O)OCC)n1cnc2c(N)ncnc21
29.3

One more compound: COc1cc2c3c(n(CCCCNC(=O)OCC4c5ccccc5-c5ccccc54)c(=O)c2cc1OC)-c1cc2c(cc1C3=O)OCO2
37.6

One more compound: O=C(CC(O)c1ccncc1)c1ccccc1 (stereo not given)
48.3

One more compound: CC(=O)Nc1ccc(S(=O)(=O)[N-]C2C(=O)c3ccccc3C(=O)C2[n+]2ccccc2)cc1 (stereo not given)
33.3
